# Tested on: MCF7 breast
# TEST DESCRIPTION: NCI tumour cell line growth inhibition, 48 h; in the data active = GI50 below about 0.43 µM; inactive = the rest
# output must be one of 1 for active, -1 for inactive

Field: outcome | Entry: "CCOC(=O)c1c2c(c(O)c3ccccc3c(O)n(Cc3ccc(OC)cc3)c1C)C(=O)C=CC2=O"
-1

Field: outcome | Entry: "O=C(Nc1cccc(-n2ccc3c(NC(=O)c4ccccc4)nccc32)c1)c1ccc(N2CCOCC2)c(C(F)(F)F)c1"
1

Field: outcome | Entry: Cc1ccc2c(c1)C(C)Cc1c(ncnc1-n1cnc3ccccc31)N2C (stereo not given)
1

Field: outcome | Entry: "COc1ccc(OC)c(/C=N/NC(=O)Cc2csc3nc(-c4ccc(Br)cc4)cn23)c1"
-1

Field: outcome | Entry: COc1cc(C2c3[nH]c4ccccc4c3C[C@H]3COC(=O)N23)cc(OC)c1OC (stereo not given in full)
1

Field: outcome | Entry: "Cn1cc(-c2ccc3c(Nc4cccc(NC(=O)Nc5cccc(F)c5)c4)ncnc3c2)cn1"
-1

Field: outcome | Entry: "N=C(N)c1ccc(OCc2cccc(COc3ccc(C(=N)N)cc3)c2)cc1"
-1

Field: outcome | Entry: "COc1ccc2[nH]c(=O)c3c4ccccc4cn3c2c1"
1

Field: outcome | Entry: "C=CC[n+]1c(/C=C/C=C2\N(C)c3ccccc3C2(C)C)sc2ccc(OC)cc21"
1

Field: outcome | Entry: "CC1(C#N)N(C(=O)c2ccccc2)c2ccccc2N1C(=O)c1ccccc1"
-1

* * *

# Tested on: OVCAR-4 ovarian
# TEST DESCRIPTION: NCI tumour cell line growth inhibition, 48 h
Where a SMILES comes first, the peptide text is derived from it. The star is where a group is joined. Boc = CC(C)(C)OC(=O)*; Bz = O=C(c1ccccc1)*
ASSAY READOUT: TGI (µM)
// return numeric value only (unit: µM, not printed)

Here "CC1=NCCN=C(C)C1N=Nc1ccc2nc(C)[nH]c2c1" was tested on OVCAR-4 ovarian, and its TGI came to 30.6

Here CN(C)CCOc1ccc2[nH]c(C(=O)N3CC(CCl)c4c3cc(N)c3ccccc43)cc2c1 (stereo unspecified) was tested on OVCAR-4 ovarian, and its TGI came to 1.18

Here CC(NC(=O)C(Cc1ccc(OC(=O)c2ccccc2)cc1)NC(=O)OC(C)(C)C)C(=O)NC(Cc1ccccc1)C(=O)NCC(N)=O (stereo unspecified) (Boc-Y(Bz)AFG-NH2; configuration not given here) was tested on OVCAR-4 ovarian, and its TGI came to 47.2

Here COC1=C2CC(C)CC(OC)C(O)C(C)/C=C(\C)C(OC(N)=O)C(OC)/C=C\C=C(/C)C(=O)NC(=C(C=NC(C)(C)C)C1=O)C2=O (stereo unspecified) was tested on OVCAR-4 ovarian, and its TGI came to 14.4

Here "O=c1c2cc(-c3ccccc3)sc2nc2n1N=C(c1ccccc1)CS2" was tested on OVCAR-4 ovarian, and its TGI came to 61.4

Here "FC(F)(F)Oc1cccc(-c2cnc3ccc(-c4ccncc4)nn23)c1" was tested on OVCAR-4 ovarian, and its TGI came to 11.3

* * *

Hi there, I'd appreciate the recorded TGI for every entry that follows.
# Test system: MOLT-4 leukemia
# TEST DESCRIPTION: NCI tumour cell line growth inhibition, 48 h

// sample Clc1ccc(CSC(Cn2ccnc2)c2ccc(Cl)cc2Cl)cc1 (stereo not given) , its TGI was 4.87 µM

// sample N#Cc1c(-c2ccccc2)nc(SCC2CO2)nc1N1CCOCC1 (stereo not given) , its TGI was > 74.6 µM

// sample "O=S(=O)(O)c1c(Cl)cc(O)c2ncccc12" , its TGI was > 100 µM

// sample CC(=O)[C@@H]1[C@@H](OC(=O)CCC(C)COC2OC(CO)C(O)C(O)C2O)C[C@H]2[C@@H]3CC=C4C[C@@H](OC5OC(CO)C(OC6OC(C)C(O)C(O)C6O)C(O)C5OC5OC(C)C(O)C(O)C5O)CC[C@]4(C)[C@H]3CC[C@]12C (stereo not given in full) , its TGI was > 100 µM

// sample CC(=O)OC1=c2ccccc2=C(O)C2C1C=NN2C(C)=O (stereo not given) , its TGI was > 100 µM

// sample "COc1cc2c(cc1O)CC[C@@H]1[C@@H]2CC[C@]2(C)[C@@H](NCCN(C)C)CC[C@@H]12" , its TGI was 0.695 µM

// sample "Cc1ccc(S(=O)(=O)c2c(N)c3nc4ccccc4n3c3nc4ccccc4nc23)cc1" , its TGI was > 100 µM

// sample CC(C)/C=C1\CCC(CN2CCCC2)C1=O (stereo not given) , its TGI was 14.9 µM

// sample CC12CCC3C(CCC4Cc5[nH]c6ccccc6c5CC43C)C1CCC2O (stereo not given) , its TGI was > 100 µM

// sample "C=C(CN(C)C)C(=O)c1ccccc1C" , its TGI was 35.7 µM

// sample N#Cc1ccccc1NC(=O)/C(=N\N)C(C(=O)c1ccncc1)C1OC(=O)c2ccccc21 (stereo not given) , its TGI was > 100 µM

// sample "CN(C)c1ccc2c(=O)c3ccccc3oc2n1" , its TGI was > 100 µM

// sample "COc1ccc2[nH]c(=O)c3c4ccccc4cn3c2c1" , its TGI was 2.23 µM

// sample "Nc1cc2c3c(c1)Oc1cc(N)cc4c1C3c1c(cc(N)cc1O4)O2" , its TGI was > 100 µM

// sample "C/C(CC/C(C)=N/O)=N\O" , its TGI was > 100 µM

// sample O=C1/C(=C/c2ccccc2)CCCC1CN1CCCCC1 (stereo not given) , its TGI was > 100 µM

// sample C=CCN1CCC(OC(=O)C(O)(C#CC)C2CCCC2)CC1 (stereo not given) , its TGI was > 100 µM

// sample "O=C1C(Cl)=C(Nc2cccc(Cl)c2)C(=O)N1Cc1ccccc1" , its TGI was > 100 µM

// sample CC(C)(C)OC1=C(OC(C)(C)C)C(O)(c2ccccc2)C1=O (stereo not given) , its TGI was > 100 µM

// sample "CN=C(N)N/N=C(\C)c1ccc2c(c1)Cc1cc(/C(C)=N/NC(N)=NC)ccc1-2" , its TGI was > 100 µM
